Tested on: MCF7 (human breast cancer cell)
Assay: CCK-8 anti-proliferation assay, MCF7
Type: cell-based
Conditions: at 20 µM, 48 h, mean ± SEM, read-out: Inhibition Rate (%)
observedProperty: inhibition at 20 µM (%)
Only the number, expressed in %, is required.

compound: C[C@@H](CO)CCC[C@@H](C)[C@H]1CC[C@H]2[C@@H]3CC=C4C[C@@H](O)CC[C@]4(C)[C@H]3CC[C@]12C
target: MCF7 (human breast cancer cell)
endpointResult: 14.1

Entry under review: CC(=O)OC[C@H](C)CCC[C@@H](C)[C@H]1CC[C@H]2[C@@H]3CC(=O)[C@@]4(O)C[C@@H](O)CC[C@]4(C)[C@H]3CC[C@]12C [compound (25R)-5] . Reported inhibition at 20 µM?
19.3

Also C[C@@H](CO)CCC[C@@H](C)[C@H]1[C@@H](O)C[C@H]2[C@@H]3CC=C4C[C@@H](O)CC[C@]4(C)[C@H]3CC[C@]12C , if possible.
31.2

Also CC(=O)OC[C@H](C)CCC[C@@H](C)[C@H]1CC[C@H]2[C@@H]3C[C@@H](O)[C@@]4(O)C[C@@H](O)CC[C@]4(C)[C@H]3CC[C@]12C , if possible.
19
